Exercise: for every item that follows, state its recorded COX-2 Selectivity Index (COX-1 IC50/COX-2 IC50).
Molecular target: murine COX-2 (Mus musculus, UniProt Q05769)
Sequence (Q05769 18-604): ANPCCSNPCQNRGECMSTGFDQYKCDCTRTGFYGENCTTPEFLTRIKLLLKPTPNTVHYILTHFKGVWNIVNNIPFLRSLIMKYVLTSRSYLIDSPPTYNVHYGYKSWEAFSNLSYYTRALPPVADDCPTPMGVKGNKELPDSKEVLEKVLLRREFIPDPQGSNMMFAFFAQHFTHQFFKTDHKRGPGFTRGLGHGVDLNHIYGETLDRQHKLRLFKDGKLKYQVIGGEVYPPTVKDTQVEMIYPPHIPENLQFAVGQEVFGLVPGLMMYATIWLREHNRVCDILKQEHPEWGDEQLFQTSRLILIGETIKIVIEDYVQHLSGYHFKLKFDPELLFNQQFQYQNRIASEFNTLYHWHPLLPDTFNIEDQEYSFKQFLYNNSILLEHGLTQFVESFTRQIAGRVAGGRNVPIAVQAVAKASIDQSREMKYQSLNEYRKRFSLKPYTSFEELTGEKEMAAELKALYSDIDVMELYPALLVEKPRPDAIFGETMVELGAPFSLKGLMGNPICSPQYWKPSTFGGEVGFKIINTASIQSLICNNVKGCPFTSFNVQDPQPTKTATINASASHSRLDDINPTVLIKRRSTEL
Experiment: In vitro purified COX-2 inhibition assay (TLC, 14C-arachidonic acid)
Type: biochemical
Details: in vitro, purified enzymes

Entry COc1ccc2c(c1)c(CC(=O)NCCCCNC(=O)c1ccc(C(=O)[O-])c(C3=c4cc5c6c(c4Oc4c3cc3c7c4CCCN7CCC3)CCC[N+]=6CCC5)c1)c(C)n2C(=O)c1ccc(Cl)cc1 [Fluorocoxib B, reference compound] — recorded COX-2 Selectivity Index (COX-1 IC50/COX-2 IC50) = >31

// sample `COc1ccc2c(c1)c(CC(=O)NCCCCNC(=O)c1ccc(C(=O)NC3CC(C)(C)N([O])C(C)(C)C3)c(C3=c4cc5c6c(c4Oc4c3cc3c7c4CCCN7CCC3)CCC[N+]=6CCC5)c1)c(C)n2C(=O)c1ccc(Cl)cc1` , its COX-2 Selectivity Index (COX-1 IC50/COX-2 IC50) was >75

response.value for `COc1ccc2c(c1)c(CC(=O)NCCCCNC(=O)c1ccc(C3=c4cc5c6c(c4Oc4c3cc3c7c4CCCN7CCC3)CCC[N+]=6CCC5)c(C(=O)OC3CC(C)(C)N([O])C(C)(C)C3)c1)c(C)n2C(=O)c1ccc(Cl)cc1` (field: COX-2 Selectivity Index (COX-1 IC50/COX-2 IC50)) = >20

Lab book: COX-2 Selectivity Index (COX-1 IC50/COX-2 IC50) of `COc1ccc2c(c1)c(CC(=O)NCCCCNC(=O)c1ccc(C3=c4cc5c6c(c4Oc4c3cc3c7c4CCCN7CCC3)CCC[N+]=6CCC5)c(C(=O)NC3CC(C)(C)N([O])C(C)(C)C3)c1)c(C)n2C(=O)c1ccc(Cl)cc1` noted as >83

Recorded COX-2 Selectivity Index (COX-1 IC50/COX-2 IC50) (molecule COc1ccc2c(c1)c(CC(=O)NCCCCNC(=O)c1ccc(C3=c4cc5c6c(c4Oc4c3cc3c7c4CCCN7CCC3)CCC[N+]=6CCC5)c(C(=O)[O-])c1)c(C)n2C(=O)c1ccc(Cl)cc1 [Fluorocoxib A, reference compound] ): >35

// recorded COX-2 Selectivity Index (COX-1 IC50/COX-2 IC50) for COc1ccc2c(c1)c(CC(=O)NCCCCNC(=O)c1ccc(C3=c4cc5c6c(c4Oc4c3cc3c7c4CCCN7CCC3)CCC[N+]=6CCC5)c(C(=O)NCC3CC(C)(C)N([O])C3(C)C)c1)c(C)n2C(=O)c1ccc(Cl)cc1 (stereo not shown) : >13

Entry `COc1ccc2c(c1)c(CC(=O)NCCCCNC(=O)c1ccc(C3=c4cc5c6c(c4Oc4c3cc3c7c4CCCN7CCC3)CCC[N+]=6CCC5)c(C(=O)Nc3ccc(C(=O)OC4CC(C)(C)N([O])C(C)(C)C4)cc3)c1)c(C)n2C(=O)c1ccc(Cl)cc1` ; COX-2 Selectivity Index (COX-1 IC50/COX-2 IC50) = >54
